# credit: the RNAGym collection of RNA variant scans (doi:10.7554/elife.80360)

B1: CPEB3 Ribozyme (parent)
chain: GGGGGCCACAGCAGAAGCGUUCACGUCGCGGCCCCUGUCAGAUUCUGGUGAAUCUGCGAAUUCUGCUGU

Variants of: B1
Assay: self-cleavage, relative activity (ratio to wild type); higher = more cleavage; co-transcriptional
quantity: self-cleavage
Answer using only a numeral; do not append any unit.

G37C U62C
0.276
G17U U64A
0.201
G4A U38C
0.699

Request: Please give the measured self-cleavage for this variant: G3A C27G
Result: 0.056

Request: Please give the measured self-cleavage for this variant: A40G A52G
Result: 0.903

Request: Please give the measured self-cleavage for this variant: C35A U38G
Result: 0.291

Request: Please give the measured self-cleavage for this variant: A10G C18G
Result: 0.0572

Request: Please give the measured self-cleavage for this variant: G28A G47A
Result: 0.22

Request: Please give the measured self-cleavage for this variant: C24G U49A
Result: 0.59

Request: Please give the measured self-cleavage for this variant: C32A C33G
Result: 0.258

Request: Please give the measured self-cleavage for this variant: G31U C63G
Result: 0.454
